biological target: L-type calcium channel, dihydropyridine site (Cav1.2 alpha-1C) (Homo sapiens); assay: Inhibition of Calcium Channel L-Type, Dihydropyridine at 10 µM in the Eurofins-Panlabs radioligand binding assay (Eurofins_assay_214600); design: ligand concentration 0.1 nM, non-specific ligand with concentration 1 µM Nitrendipine, incubation time 90 min, incubation temperature 25 °C; settings: Wistar, rat, rat cerebral cortex preparation, probe [3H] Nitrendipine, 0.1 nM; compound concentration 10 uM; target entry is the homologue from another species
Sequence (Q13936 whole entry): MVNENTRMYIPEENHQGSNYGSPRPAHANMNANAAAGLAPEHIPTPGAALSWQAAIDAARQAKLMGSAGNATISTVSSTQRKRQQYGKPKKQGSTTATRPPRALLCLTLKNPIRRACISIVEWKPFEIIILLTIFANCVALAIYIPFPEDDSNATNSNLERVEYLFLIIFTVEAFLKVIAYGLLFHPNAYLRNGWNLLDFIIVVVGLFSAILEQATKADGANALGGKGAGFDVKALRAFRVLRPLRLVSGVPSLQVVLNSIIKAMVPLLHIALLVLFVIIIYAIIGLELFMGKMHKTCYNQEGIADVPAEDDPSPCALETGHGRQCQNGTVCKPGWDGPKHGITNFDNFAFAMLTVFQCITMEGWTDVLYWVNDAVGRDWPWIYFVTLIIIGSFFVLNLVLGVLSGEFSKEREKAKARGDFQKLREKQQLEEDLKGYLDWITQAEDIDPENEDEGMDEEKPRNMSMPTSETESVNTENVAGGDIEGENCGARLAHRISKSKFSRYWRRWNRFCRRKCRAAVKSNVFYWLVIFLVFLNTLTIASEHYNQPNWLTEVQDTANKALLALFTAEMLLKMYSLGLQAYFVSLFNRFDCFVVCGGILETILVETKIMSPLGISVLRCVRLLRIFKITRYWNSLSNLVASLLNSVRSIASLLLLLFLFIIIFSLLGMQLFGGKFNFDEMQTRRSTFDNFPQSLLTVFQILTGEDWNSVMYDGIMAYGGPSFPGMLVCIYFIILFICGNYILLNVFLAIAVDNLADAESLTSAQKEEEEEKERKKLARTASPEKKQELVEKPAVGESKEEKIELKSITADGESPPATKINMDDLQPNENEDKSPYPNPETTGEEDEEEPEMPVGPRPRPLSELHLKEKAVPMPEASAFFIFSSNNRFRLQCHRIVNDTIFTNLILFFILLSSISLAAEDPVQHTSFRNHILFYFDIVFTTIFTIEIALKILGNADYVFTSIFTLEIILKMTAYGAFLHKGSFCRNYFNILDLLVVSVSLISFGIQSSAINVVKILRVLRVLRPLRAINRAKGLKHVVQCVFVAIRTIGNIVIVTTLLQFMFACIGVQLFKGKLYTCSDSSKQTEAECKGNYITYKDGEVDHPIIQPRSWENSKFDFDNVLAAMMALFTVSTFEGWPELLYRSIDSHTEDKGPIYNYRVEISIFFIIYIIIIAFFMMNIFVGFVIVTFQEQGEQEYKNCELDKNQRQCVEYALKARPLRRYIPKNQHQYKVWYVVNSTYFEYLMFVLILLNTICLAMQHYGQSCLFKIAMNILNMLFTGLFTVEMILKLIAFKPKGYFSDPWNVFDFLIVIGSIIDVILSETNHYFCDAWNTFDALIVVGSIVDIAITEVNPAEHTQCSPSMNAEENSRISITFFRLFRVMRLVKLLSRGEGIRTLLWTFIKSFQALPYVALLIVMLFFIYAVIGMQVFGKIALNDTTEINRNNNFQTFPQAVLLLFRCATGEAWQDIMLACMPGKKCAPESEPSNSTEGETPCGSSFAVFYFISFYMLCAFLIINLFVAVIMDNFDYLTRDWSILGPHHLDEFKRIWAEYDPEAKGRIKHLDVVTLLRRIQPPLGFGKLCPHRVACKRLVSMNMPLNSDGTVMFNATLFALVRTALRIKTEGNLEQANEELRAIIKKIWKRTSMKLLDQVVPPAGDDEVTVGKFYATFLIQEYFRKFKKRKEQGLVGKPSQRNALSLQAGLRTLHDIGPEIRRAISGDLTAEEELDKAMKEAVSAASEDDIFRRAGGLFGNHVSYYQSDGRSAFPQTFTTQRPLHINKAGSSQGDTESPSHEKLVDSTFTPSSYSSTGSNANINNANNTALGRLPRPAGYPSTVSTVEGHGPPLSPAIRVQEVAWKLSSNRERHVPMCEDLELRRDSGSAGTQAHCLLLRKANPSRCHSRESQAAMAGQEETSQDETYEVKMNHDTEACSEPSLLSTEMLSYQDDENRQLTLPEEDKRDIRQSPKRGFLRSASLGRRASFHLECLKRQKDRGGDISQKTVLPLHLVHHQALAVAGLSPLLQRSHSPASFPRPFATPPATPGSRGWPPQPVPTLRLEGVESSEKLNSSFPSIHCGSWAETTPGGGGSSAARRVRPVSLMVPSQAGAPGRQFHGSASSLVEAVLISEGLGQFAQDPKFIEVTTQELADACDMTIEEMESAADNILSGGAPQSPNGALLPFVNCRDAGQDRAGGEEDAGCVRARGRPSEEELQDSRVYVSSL
ENDPOINT NAME: inhibition at 90 min, 10 µM

Which inhibition at 90 min, 10 µM is listed for NS(=O)(=O)c1cc(NC(=O)Cc2ccccc2)ccc1Oc1cccc(Cl)c1 [BAY-1797] ?
21% (not active)
